target: VEGF-165 (human, UniProt P15692-4 27-191); assay: single-molecule nanopore (carrier dimerization, biphasic Hill fit); apparent sandwich Kd; 200 pM carrier; Carriers (200 pM total) incubated with protein at 37 °C for 2 h; nanopore measurement in 100 mM KCl, 10 mM Tris-EDTA pH 8.0, -300 mV; conditions: protein: recombinant; chain copies: 2; 2 identical carriers per protein dimer; first 12 nt pair with carrier overhang
Sequence (P15692 other isoform, or with tags, fused parts or gaps): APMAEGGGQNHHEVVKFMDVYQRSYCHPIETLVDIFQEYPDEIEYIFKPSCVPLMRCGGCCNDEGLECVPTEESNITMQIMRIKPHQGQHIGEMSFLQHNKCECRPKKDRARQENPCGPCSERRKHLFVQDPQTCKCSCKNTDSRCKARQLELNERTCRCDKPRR
readout.name: Kd

Query block: Output measured Kd for this item: GGGCGGCGACCTTTTTTTTGTGGGGGTGGACGGGCCGGGTAGA (structured_DNA, 5' phosphate, ligated to carrier) [VEGF probe (V7t1) carrier]
Result block: ~0.3 pM
